Molecular target: recombinant human NK3 receptor (Homo sapiens)
Construct: expressed in transfected cells; host or cells: HEK293 cells (transient expression), membranes
Sequence (P29371 1-465): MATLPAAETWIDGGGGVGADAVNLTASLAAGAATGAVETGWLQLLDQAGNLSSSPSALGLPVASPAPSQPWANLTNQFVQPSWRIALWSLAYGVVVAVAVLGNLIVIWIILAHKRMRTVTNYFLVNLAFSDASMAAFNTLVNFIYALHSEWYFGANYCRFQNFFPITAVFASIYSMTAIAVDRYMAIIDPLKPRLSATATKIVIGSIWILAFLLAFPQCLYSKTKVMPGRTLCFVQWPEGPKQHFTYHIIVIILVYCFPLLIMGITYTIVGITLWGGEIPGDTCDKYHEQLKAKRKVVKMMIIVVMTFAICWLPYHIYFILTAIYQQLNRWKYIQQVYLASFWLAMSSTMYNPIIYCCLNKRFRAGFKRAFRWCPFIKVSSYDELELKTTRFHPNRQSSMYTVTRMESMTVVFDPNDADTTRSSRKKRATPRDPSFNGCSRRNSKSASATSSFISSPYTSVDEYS
Test: [3H]SR142801 competition binding assay, hNK3 receptor binding
Settings: [3H]SR142801 displacement; membranes from HEK293 cells transiently expressing recombinant human NK3 receptor; Ki by Cheng-Prussoff from IC50
Ki by entry:
assay readout: Ki (nM)

>>> value("Cc1ccc(O[C@@H](C)[C@H]2CCN(C(=O)C3CCN(c4ccc(C#N)cn4)CC3)C[C@@H]2c2ccc(Cl)cc2)nc1")
2
>>> value("Cc1nc(-c2ccc(C(=O)N3CC[C@H]([C@H](C)Oc4ccc(C#N)cn4)[C@@H](c4ccc(Cl)cc4)C3)cc2)no1")
5.1
>>> value("C[C@H](Oc1ccc(Cl)cn1)[C@H]1CCN(C(=O)N2CCN(S(C)(=O)=O)CC2)C[C@@H]1c1ccc(Cl)cc1")
2.6
>>> value("CC(Nc1ccc(C#N)cn1)[C@H]1CCN(C(=O)C2CCN(c3ccc(C#N)cn3)CC2)C[C@@H]1c1ccc(Cl)cc1 (mixture of isomers)")
1.4
>>> value("C[C@H](Oc1ccc(F)c(F)c1)[C@H]1CCN(C(=O)C2CCN(c3ccc(C#N)cn3)CC2)C[C@@H]1c1ccc(Cl)cc1")
1.7
>>> value("C[C@H](Oc1ccc(C(F)(F)F)cn1)[C@H]1CCN(C(=O)N2CCN(S(C)(=O)=O)CC2)C[C@@H]1c1ccc(Cl)cc1")
4.7
>>> value("C[C@H](Oc1ccc(C#N)cc1)[C@H]1CCN(C(=O)C2CCN(c3ccc(C#N)cn3)CC2)C[C@@H]1c1ccc(Cl)cc1")
1.9
>>> value("C[C@H](Oc1ccc(C#N)cn1)[C@H]1CCN(C(=O)C2CCN(c3ccc(C#N)cn3)CC2)C[C@@H]1c1ccc(Cl)cc1")
0.3
>>> value("C[C@H](Oc1ccc(C(F)(F)F)cn1)[C@H]1CCN(C(=O)C2CCN(c3ccc(C#N)cn3)CC2)C[C@@H]1c1ccc(Cl)cc1")
0.2
>>> value("C[C@H](Oc1ccc(Cl)cn1)[C@H]1CCN(C(=O)C2CCN(c3ccc(C#N)cn3)CC2)C[C@@H]1c1ccc(F)c(F)c1")
0.2
>>> value("Cc1nc(-c2ccc(C(=O)N3CC[C@H]([C@H](C)Oc4ccc(C(F)(F)F)cn4)[C@@H](c4ccc(Cl)cc4)C3)cc2)no1")
1.4
>>> value("Cc1nc(-c2ccc(C(=O)N3CC[C@H]([C@H](C)Oc4ccc(Cl)cn4)[C@@H](c4ccc(Cl)cc4)C3)cc2)no1")
2.3
>>> value("C[C@H](Oc1cccc(F)c1)[C@H]1CCN(C(=O)C2CCN(c3ccc(C#N)cn3)CC2)C[C@@H]1c1ccc(Cl)cc1")
3.8
>>> value("Cc1noc(-c2ccc(C(=O)N3CC[C@H](COc4ccc(Cl)cn4)[C@@H](c4ccc(F)c(F)c4)C3)cc2)n1 (racemic)")
8.3
>>> value("C[C@H](Oc1ccc(C(F)(F)F)cc1)[C@H]1CCN(C(=O)C2CCN(c3ccc(C#N)cn3)CC2)C[C@@H]1c1ccc(Cl)cc1")
1.3
>>> value("N#Cc1ccc(N2CCC(C(=O)N3CC[C@H](COc4ccc(Cl)cn4)[C@@H](c4ccccc4)C3)CC2)nc1")
9.9
>>> value("Cc1noc(-c2ccc(C(=O)N3CC[C@H]([C@H](C)Oc4ccc(C(F)(F)F)cn4)[C@@H](c4ccc(Cl)cc4)C3)cc2)n1")
1.2
>>> value("C[C@H](Oc1ccc(C#N)cn1)[C@H]1CCN(C(=O)c2ccc(-c3ccc(F)cc3)cc2)C[C@@H]1c1ccc(Cl)cc1")
7.7
>>> value("C[C@H](Oc1ccc(Cl)cc1)[C@H]1CCN(C(=O)C2CCN(c3ccc(C#N)cn3)CC2)C[C@@H]1c1ccc(Cl)cc1")
0.9
>>> value("Cc1ccc(O[C@@H](C)[C@H]2CCN(C(=O)C3CCN(c4ccc(C#N)cn4)CC3)C[C@@H]2c2ccc(Cl)cc2)cc1")
1.4
>>> value("C[C@H](Oc1ccc(C#N)cn1)[C@H]1CCN(C(=O)C2CCN(c3ccc(C#N)cn3)CC2)C[C@@H]1c1ccc(F)c(F)c1")
0.4
>>> value("C[C@H](Oc1ccc(C#N)cn1)[C@H]1CCN(C(=O)N2CCN(S(C)(=O)=O)CC2)C[C@@H]1c1ccc(Cl)cc1")
3
>>> value("C[C@H](Oc1ccc(Cl)c(Cl)c1)[C@H]1CCN(C(=O)C2CCN(c3ccc(C#N)cn3)CC2)C[C@@H]1c1ccc(Cl)cc1")
5.5
>>> value("N#Cc1ccc(N2CCC(C(=O)N3CC[C@H](COc4ccc(Cl)cn4)[C@@H](c4ccc(F)c(F)c4)C3)CC2)nc1 (relative stereo)")
1.3
>>> value("C[C@H](Oc1ccc(F)cn1)[C@H]1CCN(C(=O)C2CCN(c3ccc(C#N)cn3)CC2)C[C@@H]1c1ccc(Cl)cc1")
0.6
